biological target: Muscarinic acetylcholine receptor M2 (Homo sapiens, UniProt P08172); type: functional, cell-based; also: assay procedure not described here
Sequence (P08172 whole entry): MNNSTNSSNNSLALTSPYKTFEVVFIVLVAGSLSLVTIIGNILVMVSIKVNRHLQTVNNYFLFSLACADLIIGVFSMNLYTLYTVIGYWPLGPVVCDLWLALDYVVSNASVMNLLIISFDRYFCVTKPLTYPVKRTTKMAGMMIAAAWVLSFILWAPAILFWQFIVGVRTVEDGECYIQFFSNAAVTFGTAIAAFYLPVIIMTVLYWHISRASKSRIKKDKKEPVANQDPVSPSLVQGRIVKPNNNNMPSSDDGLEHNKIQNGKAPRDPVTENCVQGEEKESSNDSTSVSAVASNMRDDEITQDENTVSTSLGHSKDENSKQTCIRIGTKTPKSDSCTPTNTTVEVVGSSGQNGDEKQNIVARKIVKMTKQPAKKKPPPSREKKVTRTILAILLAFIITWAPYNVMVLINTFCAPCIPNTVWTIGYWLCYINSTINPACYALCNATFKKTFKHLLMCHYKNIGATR
Measured Parameter: AC50

INSERT INTO assay_data (compound, system_name, measured_parameter, reading) VALUES
  ('C#CCN[C@@H]1CCc2ccccc21', 'Muscarinic acetylcholine receptor M2 (Homo sapiens, UniProt P08172)', 'AC50', '> 30 µM'),
  ('Cc1c(O)c(=O)ccn1C', 'Muscarinic acetylcholine receptor M2 (Homo sapiens, UniProt P08172)', 'AC50', '> 30 µM'),
  ('O=C(OCCN1CCOCC1)c1cccnc1Nc1cccc(C(F)(F)F)c1 [MORNIFLUMATE]', 'Muscarinic acetylcholine receptor M2 (Homo sapiens, UniProt P08172)', 'AC50', '> 30 µM'),
  ('CC(C)NCC1CCc2cc(CO)c([N+](=O)[O-])cc2N1 (stereo unspecified)', 'Muscarinic acetylcholine receptor M2 (Homo sapiens, UniProt P08172)', 'AC50', '> 10 µM'),
  ('CCOC(=O)[C@H](CCc1ccccc1)N[C@H]1CCCN2CCC[C@@H](C(=O)O)N2C1=O', 'Muscarinic acetylcholine receptor M2 (Homo sapiens, UniProt P08172)', 'AC50', '> 30 µM'),
  ('CC(C(=O)O)c1ccc(N2CC=CC2)c(Cl)c1 (stereo unspecified)', 'Muscarinic acetylcholine receptor M2 (Homo sapiens, UniProt P08172)', 'AC50', '> 10 µM'),
  ('OCc1cc([C@@H](O)CNCCCCCCOCCOCc2c(Cl)cccc2Cl)ccc1O', 'Muscarinic acetylcholine receptor M2 (Homo sapiens, UniProt P08172)', 'AC50', '> 30 µM'),
  ('CN[C@@H]1[C@H](O)[C@H](NC)[C@H]2O[C@@]3(O)C(=O)C[C@@H](C)O[C@H]3O[C@@H]2[C@H]1O', 'Muscarinic acetylcholine receptor M2 (Homo sapiens, UniProt P08172)', 'AC50', '> 10 µM'),
  ('C[C@]12CCC(=O)C=C1CC[C@@H]1[C@@H]2CC[C@@]2(C)[C@H]1CC[C@]2(C)O', 'Muscarinic acetylcholine receptor M2 (Homo sapiens, UniProt P08172)', 'AC50', '> 30 µM'),
  ('CN(C)CCCN1c2ccccc2Sc2ccccc21', 'Muscarinic acetylcholine receptor M2 (Homo sapiens, UniProt P08172)', 'AC50', '> 10 µM'),
  ('CN1CCC2=C(C1)C(c1ccccc1)c1ccccc12 (stereo unspecified)', 'Muscarinic acetylcholine receptor M2 (Homo sapiens, UniProt P08172)', 'AC50', '> 10 µM'),
  ('O=C(Cn1ccnc1[N+](=O)[O-])NCc1ccccc1', 'Muscarinic acetylcholine receptor M2 (Homo sapiens, UniProt P08172)', 'AC50', '> 30 µM'),
  ('CNC(=O)c1cc(Oc2ccc(NC(=O)Nc3ccc(Cl)c(C(F)(F)F)c3)cc2)ccn1', 'Muscarinic acetylcholine receptor M2 (Homo sapiens, UniProt P08172)', 'AC50', '> 30 µM'),
  ('CC(C(O)c1ccc(O)cc1)N1CCC(Cc2ccccc2)CC1 (stereo unspecified)', 'Muscarinic acetylcholine receptor M2 (Homo sapiens, UniProt P08172)', 'AC50', '> 30 µM'),
  ('O=C1NCCN1CCN1CCC(c2cn(-c3ccc(F)cc3)c3ccc(Cl)cc23)CC1', 'Muscarinic acetylcholine receptor M2 (Homo sapiens, UniProt P08172)', 'AC50', '> 10 µM'),
  ('CCCCN1CCCCC1C(=O)Nc1c(C)cccc1C (stereo unspecified)', 'Muscarinic acetylcholine receptor M2 (Homo sapiens, UniProt P08172)', 'AC50', '> 30 µM'),
  ('COC(=O)[C@@H]1CC2=CC(=O)CC[C@]2(C)[C@@]23O[C@@H]2C[C@@]2(C)[C@@H](CC[C@@]24CCC(=O)O4)[C@H]13', 'Muscarinic acetylcholine receptor M2 (Homo sapiens, UniProt P08172)', 'AC50', '> 30 µM'),
  ('COC(=O)C1=C(C)NC(C)=C(C(=O)OC(C)C)C1c1cccc2nonc12 (stereo unspecified)', 'Muscarinic acetylcholine receptor M2 (Homo sapiens, UniProt P08172)', 'AC50', '> 10 µM'),
  ('CN(C)CCCN1c2ccccc2CCc2ccc(Cl)cc21', 'Muscarinic acetylcholine receptor M2 (Homo sapiens, UniProt P08172)', 'AC50', '> 10 µM'),
  ('CN(CCCN1c2ccccc2CCc2ccccc21)CC(=O)c1ccc(Cl)cc1', 'Muscarinic acetylcholine receptor M2 (Homo sapiens, UniProt P08172)', 'AC50', '> 30 µM'),
  ('[H]/N=C(/N)c1ccc(NCc2nc3cc(C(=O)N(CCC(=O)O)c4ccccn4)ccc3n2C)cc1', 'Muscarinic acetylcholine receptor M2 (Homo sapiens, UniProt P08172)', 'AC50', '> 30 µM'),
  ('CC(C)NCC(O)COc1ccc(COCCOC(C)C)cc1 (stereo unspecified)', 'Muscarinic acetylcholine receptor M2 (Homo sapiens, UniProt P08172)', 'AC50', '> 10 µM'),
  ('C#C[C@]1(O)CC[C@H]2[C@@H]3CCc4cc(O)ccc4[C@H]3CC[C@@]21C', 'Muscarinic acetylcholine receptor M2 (Homo sapiens, UniProt P08172)', 'AC50', '> 10 µM'),
  ('C[C@H]1C[C@@H]2[C@H]([C@@H](O)C[C@@]3(C)[C@H]2CC[C@]3(O)C(=O)COC(=O)CCC(=O)O)[C@@]2(C)C=CC(=O)C=C12 [METHYLPREDNISOLONE HEMISUCCINATE]', 'Muscarinic acetylcholine receptor M2 (Homo sapiens, UniProt P08172)', 'AC50', '> 30 µM'),
  ('C=C1C[C@@H]2[C@H](CC[C@]3(C)C(=O)CC[C@@H]23)[C@@]2(C)C=CC(=O)C=C12', 'Muscarinic acetylcholine receptor M2 (Homo sapiens, UniProt P08172)', 'AC50', '> 10 µM'),
  ('CC/C=C\C/C=C\C/C=C\CCCCCCCC(=O)O', 'Muscarinic acetylcholine receptor M2 (Homo sapiens, UniProt P08172)', 'AC50', '> 30 µM'),
  ('NS(=O)(=O)c1cc2c(cc1Cl)NCNS2(=O)=O [HYDROCHLOROTHIAZIDE]', 'Muscarinic acetylcholine receptor M2 (Homo sapiens, UniProt P08172)', 'AC50', '> 10 µM'),
  ('C=C1CC[C@@]2(O)[C@H]3Cc4ccc(O)c5c4[C@@]2(CCN3CC2CC2)[C@H]1O5', 'Muscarinic acetylcholine receptor M2 (Homo sapiens, UniProt P08172)', 'AC50', '> 30 µM'),
  ('COC(=O)[C@H]1[C@@H](OC(=O)c2ccccc2)C[C@@H]2CC[C@H]1N2C', 'Muscarinic acetylcholine receptor M2 (Homo sapiens, UniProt P08172)', 'AC50', '> 30 µM'),
  ('COc1ccc(C(=O)NCc2ccc(OCCN(C)C)cc2)cc1OC [ITOPRIDE]', 'Muscarinic acetylcholine receptor M2 (Homo sapiens, UniProt P08172)', 'AC50', '> 30 µM'),
  ('NC(N)=Nc1nc(CSCCC(N)=NS(N)(=O)=O)cs1', 'Muscarinic acetylcholine receptor M2 (Homo sapiens, UniProt P08172)', 'AC50', '> 10 µM'),
  ('NC(=O)c1cnccn1 [PYRAZINAMIDE]', 'Muscarinic acetylcholine receptor M2 (Homo sapiens, UniProt P08172)', 'AC50', '> 30 µM'),
  ('O=C1CN=C(c2ccccc2)c2cc(Cl)ccc2N1CC(F)(F)F', 'Muscarinic acetylcholine receptor M2 (Homo sapiens, UniProt P08172)', 'AC50', '> 30 µM'),
  ('Cc1cccc(C)c1NC(=O)C1CCCCN1C (stereo unspecified) [MEPIVACAINE]', 'Muscarinic acetylcholine receptor M2 (Homo sapiens, UniProt P08172)', 'AC50', '> 30 µM'),
  ('CCCCC(C)(O)C/C=C/[C@H]1[C@H](O)CC(=O)[C@@H]1CCCCCCC(=O)OC (stereo partly specified)', 'Muscarinic acetylcholine receptor M2 (Homo sapiens, UniProt P08172)', 'AC50', '> 30 µM'),
  ('C#CC1(OC(N)=O)CCCCC1 [ETHINAMATE]', 'Muscarinic acetylcholine receptor M2 (Homo sapiens, UniProt P08172)', 'AC50', '> 10 µM');
